- Protocol summary: Blood-brain barrier permeability in rats after nasal administration (chlorogenic acid content in brain tissue)
- Assay type: in vivo
- Experimental context: SD, rat, other: nasal administration, 150 min after nasal administration, 20 mg/kg chlorogenic acid
Property measured: concentration at 150 min (ng/g)
One number for each entry, in ng/g.

Problem: What concentration at 150 min value was documented for this compound, O=C(/C=C/c1ccc(O)c(O)c1)O[C@@H]1C[C@](O)(C(=O)O)C[C@@H](O)[C@H]1O ?
Result: 130

----------
- Protocol summary: Bioavailability of nasal administration in beagle dogs (chlorogenic acid content in blood)
- Format: in vivo
- Experimental context: male, dog, serum, other: nasal administration, 150 min after nasal administration, 4 mg/kg chlorogenic acid
Property measured: concentration at 150 min (ng/mL)
One number for each entry, in ng/mL.

Problem: # get_value(readout='concentration at 150 min', item= O=C(/C=C/c1ccc(O)c(O)c1)O[C@@H]1C[C@](O)(C(=O)O)C[C@@H](O)[C@H]1O [Chlorogenic acid bulk drug, Chlorogenic acid] )
Result: 220

----------
- Protocol summary: Blood-brain barrier permeability in rats after nasal administration (chlorogenic acid content in brain tissue)
- Format: in vivo
- Experimental context: SD, rat, other: nasal administration, 10 min after nasal administration, 20 mg/kg chlorogenic acid
Property measured: concentration at 10 min

Problem: Which value of concentration at 10 min has been reported for O=C(/C=C/c1ccc(O)c(O)c1)O[C@@H]1C[C@](O)(C(=O)O)C[C@@H](O)[C@H]1O [Chlorogenic acid bulk drug, Chlorogenic acid] in the records?
Result: 0 ng/g

----------
- Protocol summary: Bioavailability of nasal administration in beagle dogs (chlorogenic acid content in blood)
- Type: in vivo
- Experimental context: male, dog, serum, other: nasal administration, 30 min after nasal administration, 4 mg/kg chlorogenic acid
Property measured: concentration at 30 min (ng/mL)
Answers are plain numbers, in ng/mL.

Problem: Requested field: concentration at 30 min. Item: O=C(/C=C/c1ccc(O)c(O)c1)O[C@@H]1C[C@](O)(C(=O)O)C[C@@H](O)[C@H]1O
Result: 5740

----------
- Protocol summary: Blood-brain barrier permeability in rats after nasal administration (chlorogenic acid content in brain tissue)
- Assay type: in vivo
- Experimental context: SD, rat, other: nasal administration, 30 min after nasal administration, 20 mg/kg chlorogenic acid
Property measured: concentration at 30 min
Output should be the measured figure followed by the unit it is expressed in.

Problem: Please report the recorded concentration at 30 min for O=C(/C=C/c1ccc(O)c(O)c1)O[C@@H]1C[C@](O)(C(=O)O)C[C@@H](O)[C@H]1O [Chlorogenic acid bulk drug, Chlorogenic acid] .
Result: 320 ng/g

----------
- Protocol summary: Blood-brain barrier permeability in rats after nasal administration (chlorogenic acid content in brain tissue)
- Assay type: in vivo
- Experimental context: SD, rat, other: nasal administration, 90 min after nasal administration, 20 mg/kg chlorogenic acid
Property measured: concentration at 90 min (ng/g)
Numbers only, in ng/g.

Problem: Entry O=C(/C=C/c1ccc(O)c(O)c1)O[C@@H]1C[C@](O)(C(=O)O)C[C@@H](O)[C@H]1O : reported concentration at 90 min = ?
Result: 650

----------
- Protocol summary: Bioavailability of nasal administration in beagle dogs (chlorogenic acid content in blood)
- Type: in vivo
- Experimental context: male, dog, serum, other: nasal administration, 60 min after nasal administration, 4 mg/kg chlorogenic acid
Property measured: concentration at 60 min (ng/mL)
Give bare numbers, in ng/mL.

Problem: # lookup: concentration at 60 min of O=C(/C=C/c1ccc(O)c(O)c1)O[C@@H]1C[C@](O)(C(=O)O)C[C@@H](O)[C@H]1O
Result: 2200
